Taken from paper PMC10335629.

# tested target: GLP-2R (Homo sapiens)
# Sequence (O95838 whole entry): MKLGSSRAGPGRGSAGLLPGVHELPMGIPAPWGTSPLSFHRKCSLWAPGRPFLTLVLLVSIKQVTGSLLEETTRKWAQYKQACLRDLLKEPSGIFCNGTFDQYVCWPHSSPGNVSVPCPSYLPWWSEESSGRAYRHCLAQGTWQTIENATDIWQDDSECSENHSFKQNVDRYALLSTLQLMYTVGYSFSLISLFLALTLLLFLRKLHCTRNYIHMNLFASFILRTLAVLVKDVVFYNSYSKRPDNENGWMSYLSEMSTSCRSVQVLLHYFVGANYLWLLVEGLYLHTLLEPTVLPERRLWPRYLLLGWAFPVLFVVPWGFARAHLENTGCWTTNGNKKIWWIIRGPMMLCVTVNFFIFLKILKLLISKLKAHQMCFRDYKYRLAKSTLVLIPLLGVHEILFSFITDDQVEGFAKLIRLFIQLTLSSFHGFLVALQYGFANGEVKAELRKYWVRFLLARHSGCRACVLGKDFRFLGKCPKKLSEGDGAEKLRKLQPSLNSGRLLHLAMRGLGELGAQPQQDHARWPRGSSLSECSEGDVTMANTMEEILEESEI
# experiment notes: GLP-2R activation: cAMP production, GloSensor HEK293 cells
No end group written: not given here.

# substance, measurement unit, EC50
rows = [
    ("HGEGTFSSELATILDALAARDFIAWLIATKITDKKKKKK-NH2 [GLE, glepaglutide]", "nM", 0.44),
]

---

# tested target: nLuc-GLP-1R (Homo sapiens)
# Sequence (P43220 24-463): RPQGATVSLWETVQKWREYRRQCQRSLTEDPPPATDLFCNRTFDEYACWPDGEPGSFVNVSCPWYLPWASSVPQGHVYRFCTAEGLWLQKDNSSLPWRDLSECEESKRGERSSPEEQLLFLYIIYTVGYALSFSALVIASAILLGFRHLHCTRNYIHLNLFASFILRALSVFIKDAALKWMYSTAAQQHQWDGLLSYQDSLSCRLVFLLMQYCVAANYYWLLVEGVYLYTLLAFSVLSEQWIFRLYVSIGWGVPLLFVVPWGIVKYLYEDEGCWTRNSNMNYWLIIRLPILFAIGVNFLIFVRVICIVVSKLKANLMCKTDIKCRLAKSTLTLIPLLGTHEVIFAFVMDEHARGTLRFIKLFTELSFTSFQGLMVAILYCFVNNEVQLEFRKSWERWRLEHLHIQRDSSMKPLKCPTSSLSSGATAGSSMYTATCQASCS
# experiment notes: nLuc-GLP-1R competition binding
No end group written: not given here.
value kind: IC50

# substance, result
measured = [
    ("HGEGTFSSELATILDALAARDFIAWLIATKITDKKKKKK-NH2 [GLE, glepaglutide]", "290 nM"),
]
